B1: TPR 5TU (parent)
chain: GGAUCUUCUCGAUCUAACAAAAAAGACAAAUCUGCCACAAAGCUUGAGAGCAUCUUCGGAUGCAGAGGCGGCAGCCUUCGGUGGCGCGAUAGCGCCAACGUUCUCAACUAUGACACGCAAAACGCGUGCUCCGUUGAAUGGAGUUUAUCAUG

# Variants of: B1
# protocol.description: polymerase ribozyme fitness, log enrichment relative to wild type (log ratio); higher = more active; in vitro selection for triplet polymerase activity
Variants at the floor of the assay were thinned out.
reported.metric: polymerase ribozyme fitness (log ratio)

mutation.spec	measured.value
C35U C54U U55A C116G	0.41
C5U A16C G81A U82A G126C	-0.899
A52G G58C G59C C96G A150U	-3.59
A20G G136A	0.27
U101A C105U C114A	-3.17
C149U A150G	-2.95
C18U G58C C85U C87U	-1.92
A21G A49G C63G C96U A98U C125G	-0.663
C35U A60G G136U	-3.08
C27G U45G	-3.87
U127A G128U	-3.18
A19U U56A A60G C75U C93A C118U U146A	-3.86
G94A A97G	-2.19
A21U A73G C129G	-3.49
G25A C51U G92U A119U G124U	-3.78
A37G C123U	-1.8
C54A A121U G141C	-1.65
U55A C57U G81A G84A	-0.555
C76A G136A	0.971
A12U C36U G84U	-4.11
G92A A97G A122U U148C	-3.63
U56A G59U C63G C87U	1.72
G59U G80A	-0.046
U53A C54U C85G	-2.55
C10G U144C	-3.87
A19U C87U	-0.845
A41C U144C A147U	-0.619
G59C C103U	0.229
C57U A91U	-3.95
U4G C85U	-0.873
A47C C63A G83A	-1.37
U53A C131A	-3.17
A21C A52G C103G	-1.21
C5U C38U C54U G94U A115U A119G G136U A147U	-3.8
A41G C96A C149U	-0.509
U13G G83C U145C	-3.39
C87U C96A	-1.2
A19U A60U C93U C114U	-4.17
U15G A47C	-0.922
U55G G84A C118U	-0.685
G62U U109C C116U C131U A147U	-1.94
G65U U78A	-1.52
U61G G88A	-4.18
G59A G94A	-0.522
U55A C69G U146A	-3.62
C5G C32U G84U	-3.82
